# credit: PubChem BioAssay

Experiment: S6 kinase pathway phospho-S6 level changes – cell-based, A549, cytoblot, luminescence, serum-stimulated, primary screen (AID 1158);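 note: serum-stimulated A549 lung adenocarcinoma cells; signal is phosphorylated S6 detected by cytoblot immunostaining with HRP secondary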
Conditions: 5 h, higher = more signal
Label rule, in plain words: z-score of 0.05 and up is Met, under 0.05 is Not met.

State whether the measured z-score reaches 0.05, counting equality as reaching it, for O=C1O[C@@H](c2ccccc2)[C@@H](c2ccccc2)N2[C@@H](c3ccc(O)cc3)[C@]3(C(=O)Nc4ccccc43)[C@@H](C(=O)NC[C@H](O)c3ccccc3)[C@H]12
Met

State whether the measured z-score reaches 0.05, counting equality as reaching it, for O=P(NCC1(CC2(c3ccccc3)CO2)CC1)(c1ccccc1)c1ccccc1 (centres undefined)
Not met

====

System: Neuregulin-1 EGF-like domain
Experiment: small molecules binding NRG1 EGF domain – biochemical, small-molecule microarray, 635 nm fluorescence, primary screen (AID 1081);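 note: binding of the protein to compounds printed on small-molecule microarray slides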
Conditions: higher = more signal
endpoint_label: composite z-score

INSERT INTO results (compound, reported) VALUES
  ('Cc1ccc(S[C@]2(C(=O)NCCCN(C)C)CC(=O)N(Cc3ccccc3)[C@@H]2c2ccc(CO)cc2)cc1', -1.11),
  ('COCCOC(=O)N1C(=O)[C@@]2(c3cc(C#Cc4ccc(OC)cc4)ccc31)[C@H](c1ccc(O)cc1)N1[C@H](c3ccccc3)[C@H](c3ccccc3)OC(=O)[C@H]1[C@@H]2C(=O)N1CCN(c2ncccn2)CC1', 1.13),
  ('COC(=O)[C@@]1(Cc2ccc(OC)cc2)[C@H]2c3cc(C(=O)N(C)C)n(Cc4ccc(OC)c(OC)c4)c3C[C@H]2CN1C(=O)c1ccccc1', 1.28),
  ('C=CCC(OC(C)=O)[C@@H]1[C@@H](N(Cc2cc3ccccc3o2)C(=O)c2ccc(-c3ccccc3)cc2)c2cc(OCCCO)ccc2N1C(=O)Cc1ccc2ccccc2c1 (stereo partly specified)', -0.5);

Entry CC(C)NC(=O)[C@@H]1c2ccccc2C(=O)N(C2CCCCC2)[C@H]1c1ccc(CO)cc1 : reported composite z-score = ?
1

Entry COCCOC(=O)N1C(=O)[C@@]2(c3cc(C#CCCO)ccc31)[C@H](C(=O)NC[C@H](O)c1ccccc1)[C@H]1C(=O)O[C@H](c3ccccc3)[C@H](c3ccccc3)N1[C@@H]2c1ccc(OCCO)cc1 : reported composite z-score = ?
1.16

====

Assay: blockers of DNA damage checkpoint Chk1 activation – imaging, HeLa, hydroxyurea, phospho-Chk1 nuclear intensity, primary screen (AID 1187); note: test concentration not given here
Details: hydroxyurea-induced phospho-Chk1 immunofluorescence imaging, higher = more signal
Label rule, in plain words: z-score of -0.06 and up is met, under -0.06 is not met.

Solved entries (count: 6):
INSERT INTO results (molecule, cat) VALUES
  ('O=C1O[C@@H](c2ccccc2)[C@@H](c2ccccc2)N2[C@@H](c3ccc(O)cc3)[C@]3(C(=O)Nc4ccc(C#CCCO)cc43)[C@@H](C(=O)O)[C@H]12', 'met'),
  ('C=CC[C@@]1(C(N)=O)N=C(c2ccc(OCCCO)cc2)O[C@@H]1c1ccccc1N=[N+]=[N-]', 'met'),
  ('C=C(C(=O)CC[C@@H](OC(C)=O)c1ccc(OCCO)cc1)C(C)C', 'met'),
  ('O=C1NC(=O)C2C1C=CC(C(O)c1cccs1)N2Nc1ccccn1 (stereo not given)', 'not met'),
  ('O=C(NCc1ccccc1)[C@@H]1c2ccccc2C(=O)N(C2CCCCC2)[C@H]1c1ccc(CO)cc1', 'not met'),
  ('O=C(NCCN1CCOCC1)[C@@H]1c2ccccc2C(=O)N(Cc2cc(F)cc(C(F)(F)F)c2)[C@H]1c1ccc(CO)cc1', 'not met');

State whether the measured z-score reaches -0.06, counting equality as reaching it, for [N-]=[N+]=NCc1ccccc1C[C@]1(C(=O)N2CCOCC2)N=C(c2ccc(OCCCO)cc2)O[C@H]1c1ccccc1
not met

State whether the measured z-score reaches -0.06, counting equality as reaching it, for O=C1C2C=CC(C(O)c3cccc4ccccc34)N(n3cnnc3)C2C(=O)N1Cc1ccccc1 (stereo not given)
met

State whether the measured z-score reaches -0.06, counting equality as reaching it, for CO[C@H]1O[C@H](CO)[C@@H](OC(=O)Nc2cccc(F)c2)[C@H](OC(=O)Nc2ccccc2-c2ccccc2)[C@@H]1OC(=O)Nc1ccccc1-c1ccccc1
met

State whether the measured z-score reaches -0.06, counting equality as reaching it, for COCC1C2CC[C@H]3C(OCc4ccc(F)cc4C(F)(F)F)OC[C@]4(C)[C@H]3C2=C(CN4C(=O)OC(C)(C)C)[C@H](C)C1COC (stereo not given in full)
not met

State whether the measured z-score reaches -0.06, counting equality as reaching it, for COCCOC(=O)N1C(=O)[C@@]2(c3cc(C#Cc4ccc(OC)cc4)ccc31)[C@H](c1ccc(O)cc1)N1[C@H](c3ccccc3)[C@H](c3ccccc3)OC(=O)[C@H]1[C@@H]2C(=O)N1CCN(c2ncccn2)CC1
met

State whether the measured z-score reaches -0.06, counting equality as reaching it, for C=C[C@H](C)[C@H](OC(=O)Nc1ccc(OC)cc1)c1ccc(O)c2ccccc12
not met

State whether the measured z-score reaches -0.06, counting equality as reaching it, for O=C(CS)NCCCCCCNC(=O)[C@H]1C[C@H]2C(=O)N3CCC[C@H]3C(=O)N2[C@H]1c1ccc(O)cc1
not met

State whether the measured z-score reaches -0.06, counting equality as reaching it, for C[N+](C)(C)CCCC[C@@H]1NC(=O)[C@@H]2C[C@H](C(=O)NCCCCCCNC(=O)CS)[C@H](c3cccc(OCCO)c3)N2C1=O
not met

State whether the measured z-score reaches -0.06, counting equality as reaching it, for C=C(CCCC)C(=O)CC[C@@H](OC(=O)c1ccccc1-c1ccccc1C(=O)O)c1ccc(CO)o1
met

====

Test system: Human papillomavirus type 1a protein E7 (residues 44-93)
Experiment: small molecules binding HPV E7 44-93 – biochemical, small-molecule microarray, residues 44-93, 635 nm fluorescence, primary screen (AID 1108);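 note: E7 fragment applied at 1 µg/mL in TBST for 1 h at 4 C; score combines spot fluorescence with its signal to noise ratio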
Conditions: fluorescence 635 nm, higher = more signal
Measured composite z-score, listed per entry for reference.
Returns: the value as a bare number; no unit string appended.

Examples from the recorded data:
INSERT INTO results (molecule, reported) VALUES
  ('CC(C)NC(=O)[C@@H]1c2ccccc2C(=O)N(C2CCCCC2)[C@H]1c1ccc(CO)cc1', 1.13),
  ('CCCCC(=C=CC[C@H](O)c1ccccc1OCCO)C[C@H](O)c1cc(Cl)cc(Cl)c1O', 0.405),
  ('C=CCOC(=O)[C@@H]1[C@H]2C(=O)O[C@H](c3ccccc3)[C@H](c3ccccc3)N2[C@H](c2ccc(OCCOC(=O)[C@H]3C[C@H]4C(=O)N[C@@H](Cc5ccccc5)C(=O)N4[C@H]3c3ccc(O)cc3)cc2)[C@@]12C(=O)Nc1ccc(I)cc12', 1.06);

Entry O=C(N1CCCCC1)[C@]1(CCS(=O)(=O)c2ccccc2)N=C(c2ccc(OCCCO)cc2)O[C@@H]1c1ccccc1 : reported composite z-score = ?
0.876

Entry CN1C(=O)C2C=CC(C(O)C(c3ccccc3)c3ccccc3)N(Nc3ccccc3)C2C1=O (stereo not given) : reported composite z-score = ?
1.42

Entry C=C(C(=O)CC[C@@H](OC(C)=O)c1ccc(OCCO)cc1)C(C)C : reported composite z-score = ?
0.522

Entry O=c1cccc(-c2ccc3ccccc3c2)o1 : reported composite z-score = ?
-0.0853

Entry COc1ccc([Si](C)(C)[C@H]2[C@H](CC(=O)N3Cc4ccccc4C[C@H]3CO)O[C@@]3(C(=O)N(Cc4cccc(I)c4)c4ccccc43)[C@@H]2C)cc1 : reported composite z-score = ?
0.276

Entry C=CCC(OC(C)=O)[C@@H]1[C@@H](N(Cc2cc3ccccc3o2)C(=O)c2cccc3ccccc23)c2cc(OCCCO)ccc2N1C(=O)Cc1ccc(OC)cc1 (stereo not given in full) : reported composite z-score = ?
-0.0348

Entry O=c1cccc(-c2ccccc2)o1 : reported composite z-score = ?
-0.815

Entry C=CCNC(=O)[C@H]1[C@@H]2C(=O)O[C@@H](c3ccccc3)[C@@H](c3ccccc3)N2[C@@H](c2ccc(O)cc2)[C@]12C(=O)Nc1ccc(C#Cc3ccc(OC)cc3)cc12 : reported composite z-score = ?
0.758

Entry CCOC(=O)C[C@H]1[C@H](OC(=O)c2cc3ccccc3oc2=O)[C@@H](NC(=O)c2ccc3ccccc3c2)c2cc(OCCCO)ccc2N1C(=O)c1ccccc1 : reported composite z-score = ?
1.39

Entry CC(C)N1C(=O)c2ccccc2[C@](C)(C(=O)NC2CC2)[C@@H]1c1ccc(CO)cc1 : reported composite z-score = ?
0.591

Entry CC(C)[C@H]1COC(=O)N1C(=O)[C@H]1[C@@H](c2ccccc2)N(c2ccccc2)O[C@@H]1C : reported composite z-score = ?
0.359

Entry CN(C)CCCC[C@@H]1NC(=O)[C@@H]2C[C@H](C(=O)NCc3ccc(F)cc3)[C@H](c3cccc(OCCO)c3)N2C1=O : reported composite z-score = ?
1.17
